B1: library; a variant is named by its letters at X, in order (parent)
chain: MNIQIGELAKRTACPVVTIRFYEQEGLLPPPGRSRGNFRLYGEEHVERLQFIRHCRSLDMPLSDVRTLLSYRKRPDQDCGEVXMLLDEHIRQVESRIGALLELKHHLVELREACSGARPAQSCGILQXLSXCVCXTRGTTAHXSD

- Variants of: B1
- Assay: sfGFP reporter fluorescence (15 h) (µM FITC); higher = higher leak
- Test Settings: library round: Round 2; ligand: none
Measurement Name: sfGFP reporter fluorescence

TGDDP R96A E109A
0.0459
NGADP M60L D64K
1.59
NGADY V133A
0.0753
TGDAP E109L
0.043
NGCDP D64K E112H
0.108
NGDAP P61N D64T E112I
0.11
TGDDT R111V
0.048
TGDPR E109L
0.063
NGAKP L107V
0.173
NGDAT L85I
0.0427
NEDAT
0.0492
NTCDP M60L
0.222
NGCAY
0.0505
TGDAL V108L
0.0451
NGYAP S95G
0.0664
TGDDY I125L
0.0486
SGDDW V108L
0.0515
TGDAA E112I
0.0464
SGSPP
0.0484
NISDP L107C
2.65
NMDDP L107C E109V
2.96
TGCDA
0.0468
